assay: Cell viability, MTT test in MC3T3-E1; type: cell-based; details: mouse, MC3T3-E1 cells (osteoblast-like cell line); 60 μM, MC3T3-E1, negative control = 100

- Compound smiles: "COc1ccc([C@@H]2OC[C@H]3[C@@H]2CO[C@@H]3c2ccc3c(c2)OCO3)cc1OC"
  viability at 6 days, 60 µM [%]: 89.1

###

experiment: Cell viability, MTT test in MC3T3-E1; format: cell-based; details: mouse, MC3T3-E1 cells (osteoblast-like cell line); 80 μM, MC3T3-E1, negative control = 100
Measured metric: viability at 6 days, 80 µM (%)

- Compound smiles: "COc1ccc([C@@H]2OC[C@H]3[C@@H]2CO[C@@H]3c2ccc3c(c2)OCO3)cc1OC"
  Endpoint result: 92.6

###

assay: Cell viability, MTT test in MC3T3-E1; assay type: cell-based; conditions: mouse, MC3T3-E1 cells (osteoblast-like cell line); 2 μM, MC3T3-E1, negative control = 100

- Compound smiles: "COc1ccc([C@@H]2OC[C@H]3[C@@H]2CO[C@@H]3c2ccc3c(c2)OCO3)cc1OC"
  viability at 6 days, 2 µM / %: 106
